Biological target: c-Myc template DNA (c-myc quadruplex)
Experiment: Quadruplex binding / stop assay (Taq polymerase arrest, capillary electrophoresis)
Conditions: read-out: Stop Data c-Myc μM; concentration at which 50% of the DNA was arrested (arrested:full-length 1:1)
Listed next: entries and their corresponding IC50.
Answer format: numeric, µM implied, no suffix.

Solved cases below.
CN1CCCC1CCNC(=O)c1cn2c3cc4c(=O)c5ccccc5c(=O)c4cc3oc3c(NCCC4CCCN4C)c(F)cc(c1=O)c32 (stereo not drawn)
0.9
CN1CCCC1CCNC(=O)c1cn2c3c(c(N4CC[C@H](N)C4)c(F)cc3c1=O)Oc1cc3ccccc3cc1-2 (stereo partly drawn)
0.58
CN1CCN(CCCNc2c(F)cc3c(=O)c(C(=O)NCCN4CCCC4)cn4c3c2Oc2cc3ccccc3cc2-4)CC1
0.75
O=C(NCCN1CCOCC1)c1cn2c3c(c(NCCCN4CCOCC4)c(F)cc3c1=O)Oc1cc3ccccc3cc1-2
2.5
CN(C)CCCCNC(=O)c1cn2c3cc4c(cc3oc3c(N5CC[C@H](NC(=O)OC(C)(C)C)C5)c(F)cc(c1=O)c32)c(=O)c1ccccc14
0.5

// moving on: another record for IC50
Please indicate IC50 recorded for `O=C(NCCN1CCOCC1)c1cn2c3cc4c(cc3oc3c(NCCCN5CCOCC5)c(F)cc(c1=O)c32)c(=O)c1ccccc14`
0.75

---

Assay: Pharmacokinetic/toxicokinetic evaluation in rats
Assay type: in vivo
Conditions: male, rat, plasma, iv, 7.1 mg/kg, male, Dose 1, 7.1 mg/kg IV, read-out: AUC(0-24)
Protocol: The study was conducted using three (3) test and one (1) control article groups. The high and low test article groups and the control group consisted of 28 animals each and were used to assess tolerance. […] PK/TK: Blood samples for test article blood level analysis were taken. […] Plasma (lithium heparin anticoagulant) samples were prepared and analyzed. […]
assay.readout: AUC(0-t) (ng·h/mL)
Record the value in ng·h/mL, omitting the unit from your answer.

Give a short answer stating reported AUC(0-t) for CN1CCCC1CCNC(=O)c1cn2c3c(c(N4CCC(c5cnccn5)C4)c(F)cc3c1=O)Oc1cc3ccccc3cc1-2 (stereo not shown) [CX-3543] .
779

---

Target: c-Myc template DNA (c-myc quadruplex)
Assay: Quadruplex binding / stop assay (Taq polymerase arrest, capillary electrophoresis)
Settings: read-out: Stop Data c-Myc μM; concentration at which 50% of the DNA was arrested (arrested:full-length 1:1)
Overview of reported IC50 across a group of compounds:
Respond with a number, then the unit of measure.

CN1CCCC1CCNC(=O)c1cn2c3c(c(N4CCC(N)C4)c(F)cc3c1=O)Oc1cc3ccccc3cc1-2 (stereo not shown) [compound 472]
0.62 µM

Identify measured IC50 corresponding to `O=C(NCCCN1CCOCC1)c1cn2c3c(c(NCCN4CCCC4)c(F)cc3c1=O)Oc1cc3ccccc3cc1-2`
2.5 µM

Recall and state the measured IC50 for `O=C(NCCCN1CCOCC1)c1cn2c3cc4c(=O)c5ccccc5c(=O)c4cc3oc3c(NCCCN4CCOCC4)c(F)cc(c1=O)c32` .
1.75 µM

Supply recorded IC50 for CN1CCN(CCCNC(=O)c2cn3c4cc5c(=O)c6ccccc6c(=O)c5cc4oc4c(NCCC5CCCN5C)c(F)cc(c2=O)c43)CC1 (stereo not shown) here.
1.75 µM

---

Below: a set of entries, each annotated with reported IC50.
Target: c-Myc template DNA (c-myc quadruplex)
Assay: Quadruplex binding / stop assay (Taq polymerase arrest, capillary electrophoresis)
Settings: read-out: Stop Data c-Myc μM; concentration at which 50% of the DNA was arrested (arrested:full-length 1:1)
Dear colleague, please return just the value in µM, with no unit written.

O=C(NCCCN1CCOCC1)c1cn2c3c(c(N4CC5CCCNC5C4)c(F)cc3c1=O)Oc1cc3ccccc3cc1-2 (stereo not shown) [compound 547]
0.375

Annotate the compound O=C(NCCN1CCCC1)c1cn2c3cc4c(cc3oc3c(NCCN5CCOCC5)c(F)cc(c1=O)c32)c(=O)c1ccccc14 [compound 419] with its measured IC50.
0.75

In one line, give reported IC50 of the entry O=C(CCNCCN1CCOCC1)N[C@@H]1CCN(c2c(F)cc3c(=O)c(C(=O)NCCN4CCCC4)cn4c3c2Oc2cc3c(cc2-4)oc2ccccc23)C1 [compound 358] .
0.75

Give the reported IC50 for this compound. CN(C)CCCCNC(=O)c1cn2c3cc4oc5cc([N+](=O)[O-])ccc5[nH]c4cc3oc3c(NCCCN4CCOCC4)c(F)cc(c1=O)c32 [compound 555]
0.375

Report measured IC50; entry is CN1CCN(CCCNC(=O)c2cn3c4c(c(NC(=O)CCN5CCCC5)c(F)cc4c2=O)Oc2cc4ccccc4cc2-3)CC1 [compound 88]
2.5

Provide measured IC50 value, entry: CC(C)(C)OC(=O)NC1CCN(C(=O)c2cn3c4c(c(N5CCC(NC(=O)OC(C)(C)C)C5)c(F)c(N)c4c2=O)Oc2cc4ccccc4cc2-3)C1 (stereo not shown) [compound 227]
1.75

Indicate the recorded IC50 value for this compound: CN1CCCC1CCNc1c(F)cc2c(=O)c(C(=O)NCCN3CCCC3)cn3c2c1Oc1c-3ccc2ccccc12 (stereo not shown) [compound 497]
0.41

Tell me measured IC50 for CN(C)CCCCNc1c(F)cc2c(=O)c(C(=O)N3CCC(N)C3)cn3c4cc5c(=O)c6ccccc6c(=O)c5cc4oc1c23 (stereo not shown) [compound 96] please.
2.5

// Input: CN1CCN(CCCNC(=O)c2cn3c4cc5c(cc4oc4c(NCCN6CCCC6)c(F)cc(c2=O)c43)c(=O)c2ccccc25)CC1 [compound 524] . Output its IC50 only.
0.375

Identify the reported IC50 for the following entry. CN1CCN(CCCNC(=O)c2cn3c4c(c(N5CCC(N)C5)c(F)cc4c2=O)Oc2cc4c(cc2-3)oc2ccccc24)CC1 (stereo not shown) [compound 1467]
0.25

Give the value of IC50 reported for the following: CN1CCN(CCCNc2c(F)cc3c(=O)c(C(=O)N4CCN(C)CC4)cn4c3c2Oc2cc3c(cc2-4)oc2ccccc23)CC1 [compound 154]
1.75

Supply recorded IC50 for O=C(NCCCN1CCOCC1)c1cn2c3cc4oc5cc([N+](=O)[O-])ccc5[nH]c4cc3oc3c(NCCN4CCCC4)c(F)cc(c1=O)c32 [compound 552] here.
0.375

Quote IC50 reported for O=C(NCCN1CCOCC1)c1cn2c3c(c(N4CC5CCCNC5C4)c(F)cc3c1=O)Oc1cc3ccccc3cc1-2 (stereo not shown) [compound 566] please.
0.25

---

Molecular target: c-Myc template DNA (c-myc quadruplex)
Assay: Quadruplex binding / stop assay (Taq polymerase arrest, capillary electrophoresis)
Details: read-out: S DATA; Table 1D, stop assay data
In this section, each of the compounds is paired with its reported IC50.
Unit µM implied. Number only.

CN(C)CCCCNc1ccc2c(=O)c(C(=O)NCCN3CCOCC3)cn3c2c1Oc1cc2ccccc2cc1-3 [compound 1545]
0.75

Give measured IC50 for CN1CCCC1CCNC(=O)c1cn2c3c(c(NCC(O)CO)c(F)cc3c1=O)Oc1cc3ccccc3cc1-2 (stereo not shown) [compound 1677] (c-Myc template DNA (c-myc quadruplex)).
1.75

# return IC50 of O=C(NCCN1CCCC1)c1cn2c3c(c(NCCCN4CCOCC4)c(F)cc3c1=O)Oc1cc(Cl)ccc1-2 [compound 1816] (system: c-Myc template DNA (c-myc quadruplex))
5

---

Molecular target: c-Myc template DNA (c-myc quadruplex)
Experiment: Quadruplex binding / stop assay (Taq polymerase arrest, capillary electrophoresis)
Conditions: read-out: Stop Data c-Myc μM; concentration at which 50% of the DNA was arrested (arrested:full-length 1:1)
assay.readout: IC50 (µM)
Return type: number; implicit unit µM.

CC(C)(C)OC(=O)NC1CCN(c2c(F)cc3c(=O)c(C(=O)NCc4nc5ccccc5[nH]4)cn4c3c2Oc2cc3ccccc3cc2-4)C1 (stereo not shown)
1.75
C[C@@H](O)CNc1c(F)cc2c(=O)c(C(=O)NCCC3CCCN3C)cn3c2c1Oc1cc2ccccc2cc1-3 (stereo partly shown)
0.75

Please report IC50 for the following compound: C[C@H](O)CNc1c(F)cc2c(=O)c(C(=O)NCCC3CCCN3C)cn3c2c1Oc1cc2ccccc2cc1-3 (stereo partly shown)
1.75

For the compound `NC(N)=NCCCNC(=O)c1cn2c3c(c(N4CC[C@@H](N)C4)c(F)cc3c1=O)Oc1cc3ccccc3cc1-2` , report IC50.
0.375

---

Molecular target: c-Myc template DNA (c-myc quadruplex)
Assay: Quadruplex binding / stop assay (Taq polymerase arrest, capillary electrophoresis)
Conditions: read-out: Stop Data c-Myc μM; concentration at which 50% of the DNA was arrested (arrested:full-length 1:1)
assay.readout: IC50 (µM)
Record the value in µM, omitting the unit from your answer.

COc1ccc2[nH]cc(CCNC(=O)c3cn4c5c(c(N6CCC(N)C6)c(F)cc5c3=O)Oc3cc5ccccc5cc3-4)c2c1 (stereo not shown) [compound 299]
1.75
CN1CCC(Nc2c(F)cc3c(=O)c(C(=O)NCCC4CCCN4C)cn4c3c2Oc2cc3ccccc3cc2-4)CC1 (stereo not shown) [compound 388]
0.75
O=C(Nc1ccncc1)c1cn2c3c(c(NCCCN4CCOCC4)c(F)cc3c1=O)Oc1cc3c(cc1-2)oc1ccccc13 [compound 315]
1

Give the value of IC50 reported for the following: CN(C)CCCNC(=O)c1cn2c3c(c(N4CCC(N)C4)c(F)cc3c1=O)Oc1cc3ccccc3cc1-2 (stereo not shown) [compound 246]
1.75

The values you see were collected from patent US7507727B2.
